Target: T1, CRBN, Q96SW2;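 also: pooled lentiviral library of zinc finger degron-EGFP fusions in mCherry-positive Jurkat cells, FACS-sorted after compound exposure, with degron abundance counted by next-generation sequencing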
T1 chain: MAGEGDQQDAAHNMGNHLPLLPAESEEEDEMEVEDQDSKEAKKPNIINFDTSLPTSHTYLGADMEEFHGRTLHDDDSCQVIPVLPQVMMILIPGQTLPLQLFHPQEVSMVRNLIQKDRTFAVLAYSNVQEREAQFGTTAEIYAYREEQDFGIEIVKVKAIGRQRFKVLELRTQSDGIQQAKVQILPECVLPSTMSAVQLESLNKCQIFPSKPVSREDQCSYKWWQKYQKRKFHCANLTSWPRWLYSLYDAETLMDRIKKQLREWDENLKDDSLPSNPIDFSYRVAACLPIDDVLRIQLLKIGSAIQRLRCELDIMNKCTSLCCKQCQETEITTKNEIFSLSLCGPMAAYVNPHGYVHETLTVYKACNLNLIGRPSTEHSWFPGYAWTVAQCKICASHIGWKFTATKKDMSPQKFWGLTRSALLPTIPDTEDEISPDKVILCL
Experiment: log2 fold change of degron read counts, EGFP-low vs EGFP+ sorted cells (limma voom), compound-induced degradation; higher = more compound-induced degradation of the degron-EGFP fusion; degrons are variants of IKZF1/3 zinc finger 2; compound dose not given here
Conditions: Jurkat; 18 h; compound: compound 33 (diphenyl IMiD analogue)
Whole data set: some 8,300 sequences, median “log2 fold change of degron read counts, EGFP-low vs EGFP+ sorted cells (limma voom), compound-induced degradation” near -1.1, cut for the highest 2% near 3.2. The sample holds the highest values, similar sequences and a random draw of the others, so the mix is not that of the screen.
ENDPOINT LABEL: log2 fold change of degron read counts
Please reply with the number alone, leaving off any unit.

>  <SEQUENCE CHAIN>
FYCEVCGASFTQKGNLLRHIKL [46F_47Y_49E_50V_52G_53A_54S_55F_67L_, Q9UKT9]

>  <log2 fold change of degron read counts>
2.94

$$$$

Request: Return reported log2 fold change of degron read counts; argument: FGCPQCGALFTQKGNLLRHIKL [46F_47G_49P_50Q_52G_53A_54L_55F_67L_, Q9UKT9]
Response: 1.28

Request: Return reported log2 fold change of degron read counts; argument: FQCEVCGADFTQKGNLLRHIKL [46F_47Q_49E_50V_52G_53A_54D_55F_67L_, Q9UKT9]
Response: 1.04

Request: Return reported log2 fold change of degron read counts; argument: FRCEVCGASFTQKGNLLRHIKL [46F_47R_49E_50V_52G_53A_54S_55F_67L_, Q9UKT9]
Response: 2.15

Request: Return reported log2 fold change of degron read counts; argument: FHCEVCGASFTQKGNLLRHIKL [46F_47H_49E_50V_52G_53A_54S_55F_67L_, Q9UKT9]
Response: 1.35

Request: Return reported log2 fold change of degron read counts; argument: FMCEVCGASFTQKGNLLRHIKL [46F_47M_49E_50V_52G_53A_54S_55F_67L_, Q9UKT9]
Response: 2.94

Request: Return reported log2 fold change of degron read counts; argument: FKCNQCGAVFTQKGNLLRHIKL [46F_47K_49N_50Q_52G_53A_54V_55F_67L_, Q9UKT9]
Response: -3.07
